src = patent US20080044360A1

# Measured target: human collagen type I, acid soluble, extracted from placenta (Sigma C7774) (human) (UniProt P02452)
# Sequence (P02452 162-1218 limits assumed, chain 1 of 2): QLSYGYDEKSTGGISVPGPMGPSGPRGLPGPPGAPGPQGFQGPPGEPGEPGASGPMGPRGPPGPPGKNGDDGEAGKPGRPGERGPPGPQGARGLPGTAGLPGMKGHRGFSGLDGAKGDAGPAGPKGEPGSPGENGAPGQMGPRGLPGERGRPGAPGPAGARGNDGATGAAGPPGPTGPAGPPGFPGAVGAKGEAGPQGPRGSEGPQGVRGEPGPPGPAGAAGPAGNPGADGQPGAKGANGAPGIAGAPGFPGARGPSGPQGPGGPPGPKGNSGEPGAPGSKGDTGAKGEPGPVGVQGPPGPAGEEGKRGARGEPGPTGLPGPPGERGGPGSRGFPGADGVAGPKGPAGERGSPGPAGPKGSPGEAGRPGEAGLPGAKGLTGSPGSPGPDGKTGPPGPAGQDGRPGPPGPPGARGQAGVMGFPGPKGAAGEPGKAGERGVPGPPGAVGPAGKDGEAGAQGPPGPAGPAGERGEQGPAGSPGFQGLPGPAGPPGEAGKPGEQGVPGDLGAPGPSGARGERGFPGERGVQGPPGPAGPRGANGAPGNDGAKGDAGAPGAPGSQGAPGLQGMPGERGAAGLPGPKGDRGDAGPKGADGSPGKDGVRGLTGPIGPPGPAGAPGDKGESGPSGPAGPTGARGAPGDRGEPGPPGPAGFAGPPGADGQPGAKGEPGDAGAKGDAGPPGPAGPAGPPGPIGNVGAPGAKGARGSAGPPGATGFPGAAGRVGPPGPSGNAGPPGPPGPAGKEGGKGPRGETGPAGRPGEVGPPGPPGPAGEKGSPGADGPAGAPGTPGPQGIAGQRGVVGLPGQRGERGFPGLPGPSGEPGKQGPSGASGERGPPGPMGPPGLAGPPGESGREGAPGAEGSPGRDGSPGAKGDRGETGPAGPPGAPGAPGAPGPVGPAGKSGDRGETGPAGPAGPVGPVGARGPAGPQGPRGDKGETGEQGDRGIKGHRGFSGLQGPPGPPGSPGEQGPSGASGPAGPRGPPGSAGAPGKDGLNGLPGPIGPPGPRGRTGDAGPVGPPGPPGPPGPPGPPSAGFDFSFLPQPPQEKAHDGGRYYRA
# Sequence (P08123 80-1119 limits assumed, chain 2 of 2, further chain): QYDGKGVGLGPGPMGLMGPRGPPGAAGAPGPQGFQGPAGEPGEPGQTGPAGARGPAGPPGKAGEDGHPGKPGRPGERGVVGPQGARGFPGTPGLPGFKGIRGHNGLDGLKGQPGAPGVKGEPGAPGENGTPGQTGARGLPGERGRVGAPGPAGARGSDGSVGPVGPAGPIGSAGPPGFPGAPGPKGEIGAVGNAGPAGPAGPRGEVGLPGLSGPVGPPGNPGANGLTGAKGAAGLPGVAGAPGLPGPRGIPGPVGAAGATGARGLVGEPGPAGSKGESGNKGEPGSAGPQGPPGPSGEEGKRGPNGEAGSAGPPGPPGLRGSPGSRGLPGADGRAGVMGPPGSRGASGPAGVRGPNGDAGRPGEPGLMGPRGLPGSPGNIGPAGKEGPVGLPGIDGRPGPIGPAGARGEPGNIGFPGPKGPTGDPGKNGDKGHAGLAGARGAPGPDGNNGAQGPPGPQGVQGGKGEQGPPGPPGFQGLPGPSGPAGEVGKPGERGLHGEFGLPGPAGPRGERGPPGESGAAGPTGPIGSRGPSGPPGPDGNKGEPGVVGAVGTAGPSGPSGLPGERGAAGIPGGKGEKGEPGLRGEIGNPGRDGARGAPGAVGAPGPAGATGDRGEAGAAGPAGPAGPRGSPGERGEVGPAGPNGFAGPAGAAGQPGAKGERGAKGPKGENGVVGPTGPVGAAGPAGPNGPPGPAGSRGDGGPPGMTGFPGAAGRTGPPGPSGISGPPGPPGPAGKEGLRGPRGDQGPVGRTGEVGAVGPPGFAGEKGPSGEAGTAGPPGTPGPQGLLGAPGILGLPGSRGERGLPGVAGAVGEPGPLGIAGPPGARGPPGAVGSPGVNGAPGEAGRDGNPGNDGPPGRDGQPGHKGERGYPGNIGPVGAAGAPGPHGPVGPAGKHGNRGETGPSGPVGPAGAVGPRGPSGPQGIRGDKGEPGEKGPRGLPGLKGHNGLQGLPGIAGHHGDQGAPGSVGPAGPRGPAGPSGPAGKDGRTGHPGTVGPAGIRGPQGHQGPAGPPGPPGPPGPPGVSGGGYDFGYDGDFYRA
# Assay notes: dried collagen assay
Bridge positions count the residues as written; N and C are the ends. Square brackets hold non-standard residues; d marks the D form. Primed or numbered codes have the meaning given here. Ends that are not written are not given here. Gd^T″ = GdDTPA-thiourea

Binder | % bound
KWECVHTKGEWYCETK (disulfide 4-13 (inferred)) [SEQ ID NO 65] | 7%
QWTCSGDEYTWH[dC]NYE (disulfide 4-13 (inferred); not fully specified (N-terminus); printed as QWTCSGDEYTWHcNYE) [SEQ ID NO 175] | 2%
YHACAQAGCWIW (disulfide 4-9 (inferred)) [SEQ ID NO 133] | 4%
RWSCVLDADGWVCSDN (disulfide 4-13 (inferred)) [SEQ ID NO 66] | 6%
QW[dT]CSGDEYTWHCNYE (disulfide 4-13 (inferred); not fully specified (N-terminus, C-terminus); printed as QWtCSGDEYTWHCNYE) [SEQ ID NO 166] | 2%
QWTCSGDEYTWHC[dN]YE (disulfide 4-13 (inferred); not fully specified (N-terminus); printed as QWTCSGDEYTWHCnYE) [SEQ ID NO 176] | 2%
{Gd^T″}-GQWHCTTRFPHH[dR]CLYG (disulfide 5-14 (inferred); not fully specified (C-terminus)) [Compound ID 902] | 7%
YHACYQAG[dC]WIW (disulfide 4-9 (inferred); not fully specified (C-terminus); printed as YHACYQAGcWIW) [SEQ ID NO 159] | 7%
{Gd^T″}-GQWHCTTLFPHH[dY]CLYG (disulfide 5-14 (inferred); not fully specified (C-terminus)) [Compound ID 907] | 6%
WQVCADSPGVITYCYTY (disulfide 4-14 (inferred)) [SEQ ID NO 98] | 5%
